Origin of measurements: the supplement of paper PMC9112550

test system: Escherichia coli TOP10; assay: shrunken log2 fold change of peptide-encoding DNA abundance (4.5 h post-induction vs induction); higher = less antimicrobial activity (less host growth inhibition); details: time post-induction: 4.5 h; library: site-saturation at positions 5, 18, 19, 20;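 note: peptides expressed intracellularly from a pBAD plasmid library in pooled LB shake-flask culture, induced with 0.3% L-arabinose, DNA abundance read by NGS, three biological replicates, DESeq2 with apeglm shrinkage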
Measure: shrunken log2 fold change

>>> print(df.to_string())
        construct_sequence  reported
0  RRIRWRPPRLPRPRPRPAFLPRP   -0.0114
1  RRIRSRPPRLPRPRPRPSGSPRP    -0.151
2  RRIRERPPRLPRPRPRPVGWPRP     0.888
3  RRIRRRPPRLPRPRPRPMHKPRP     0.299
4  RRIRYRPPRLPRPRPRPAMYPRP     -1.14
5  RRIRCRPPRLPRPRPRPGFYPRP    -0.449
6  RRIRMRPPRLPRPRPRPKGPPRP     0.716
7  RRIRKRPPRLPRPRPRPTGWPRP      1.44
